The compounds listed here are annotated with their inhibition.
# TESTED_SYSTEM: Protein deacetylase HDAC6 (Homo sapiens)
# EXPERIMENTAL_SETUP: at 10 µM
Among all 5,600 compounds or so, about 390 (7%) showed an effect of 50% or more. This is one part of a sample in which strong results are shown more often than they occur. Positions of bridges follow the written chain, without caps; N, C: chain ends. Non-standard residues stand in square brackets, D forms with d. Residues, ends and D or L forms follow the SMILES beside them. hArg = N=C(N)NCCCC[C@H](N)C(=O)O; Mpa = O=C(O)CCS
OBSERVED_PROPERTY: inhibition (%)

COMPOUND: COc1ccc2[nH]c(SCc3ncc(C)c(OC)c3C)nc2c1
RECORDED_MEASUREMENT: 62.8
--
COMPOUND: N#CN=C(NCCCCCCOc1ccc(Cl)cc1)Nc1ccncc1
RECORDED_MEASUREMENT: -6.3
--
COMPOUND: O=C1c2ccccc2C(=O)C1c1ccccc1
RECORDED_MEASUREMENT: 7.2
--
COMPOUND: CCCC(=O)Nc1ncnc2c1ncn2C1O[C@@H]2COP(=O)(O)O[C@H]2[C@H]1OC(=O)CCC (stereo partly drawn)
RECORDED_MEASUREMENT: 3.41
--
COMPOUND: CC1=NN(c2ccc(C(=O)O)cc2)C(=O)/C1=C\c1ccc(-c2cc(C)c(C)cc2[N+](=O)[O-])o1
RECORDED_MEASUREMENT: -7.66
--
COMPOUND: NCCC(Oc1ccc(C(F)(F)F)cc1)c1ccccc1 (stereo not drawn)
RECORDED_MEASUREMENT: 1.38
--
COMPOUND: CC(=O)NC[C@H]1CN(c2ccc(N3CCSCC3)c(F)c2)C(=O)O1
RECORDED_MEASUREMENT: 9.47
--
COMPOUND: O=C1C[C@@H](c2ccc(O)cc2)Oc2cc(O)ccc21
RECORDED_MEASUREMENT: -5.99
--
COMPOUND: O=C1c2ccccc2-c2n[nH]c3cccc1c23
RECORDED_MEASUREMENT: 88.8
--
COMPOUND: CC(=O)Nc1cccc(O)c1
RECORDED_MEASUREMENT: 34.1
--
COMPOUND: CNCCCOc1cc(F)c(-c2c(Cl)nc3ncnn3c2N[C@@H](C)C(F)(F)F)c(F)c1
RECORDED_MEASUREMENT: 9.44
--
COMPOUND: CCOC(=O)c1ccc(N2NC(=O)/C(=C/c3ccc([N+](=O)[O-])o3)C2=O)cc1
RECORDED_MEASUREMENT: 66.9
--
COMPOUND: COc1ccc2[nH]c([S+]([O-])Cc3ncc(C)c(OC)c3C)nc2c1 (stereo not drawn)
RECORDED_MEASUREMENT: 16.1
--
COMPOUND: CCCCNNC(=O)c1ccc(Br)cc1
RECORDED_MEASUREMENT: 35.4
--
COMPOUND: Nc1n[nH]c2nc3ccccc3nc12
RECORDED_MEASUREMENT: 53.6
--
COMPOUND: COc1ccc(C2C(=O)c3ccccc3C2=O)cc1
RECORDED_MEASUREMENT: 98.2
--
COMPOUND: O=c1c(-c2ccc(O)cc2)coc2cc(O)ccc12
RECORDED_MEASUREMENT: 101
--
COMPOUND: O=C1c2ccccc2C(=O)C1c1ccc(Br)cc1
RECORDED_MEASUREMENT: 95.5
--
COMPOUND: COc1ccc([C@@H]2CC(=O)c3c(O)cc(O[C@@H]4O[C@H](CO[C@@H]5O[C@@H](C)[C@H](O)[C@@H](O)[C@H]5O)[C@@H](O)[C@H](O)[C@H]4O)cc3O2)cc1O
RECORDED_MEASUREMENT: 14.3
--
COMPOUND: Nc1ncnc2c1ncn2[C@@H]1O[C@H](CO)C[C@H]1O
RECORDED_MEASUREMENT: -9.63
--
COMPOUND: O=C(C1CC1)N1CC[C@@H](Cc2n[nH]c(=O)n2-c2ccc(-c3ccc4occc4c3)cc2)C1
RECORDED_MEASUREMENT: 39.2
--
COMPOUND: CNCC(=O)O
RECORDED_MEASUREMENT: 15.9
--
COMPOUND: N=C(N)NCCCC[C@@H]1NC(=O)CCSSC[C@@H](C(N)=O)NC(=O)[C@@H]2CCCN2C(=O)[C@H](Cc2c[nH]c3ccccc23)NC(=O)[C@H](CC(=O)O)NC(=O)CNC1=O ([Mpa][hArg]GDWPC-NH2; disulfide 1-7)
RECORDED_MEASUREMENT: 6.3
